Assay: Plasma pharmacokinetics of weekly MK-0752, dose 1 course 1
Type: in vivo
Conditions: human, oral, median t1/2, all 10 patients, both dose levels
TEST READOUT: half-life (h)

[
  {
    "STRUCTURE SMILES STRING": "O=C(O)CC[C@H]1CC[C@@](c2cc(F)ccc2F)(S(=O)(=O)c2ccc(Cl)cc2)CC1",
    "UOM": "h",
    "QUANTITATIVE RESULT": 21.7
  }
]
